Form field: melting point (one value per entry).

{"compound": "CC1COc2c(F)c(F)cc(C(=O)O)c2N1 (stereo not given)", "melting point": "200 to 202 °C"}
{"compound": "COc1cc(OCC(O)CN2CCN(c3ccccc3NC(C)=O)CC2)cc(OC)c1OC (stereo not given)", "melting point": "128 to 130 °C"}
{"compound": "CC(=O)C1=C(O)c2ccc3ccccc3c2S(=O)(=O)N1", "melting point": "191 to 192 °C"}
{"compound": "COc1ccc(C(=C(c2ccc(OC)cc2)C(F)(F)F)c2ccc(OCCN(C)C)cc2)cc1", "melting point": "77 to 79 °C"}
{"compound": "COC(=O)NCc1cccc(-c2ccnc3c(C(=O)c4ccco4)cnn23)c1", "melting point": "152 to 154 °C"}

QUERY: Fill in melting point for record Cc1noc(NS(=O)(=O)c2cccc3cccnc23)c1C
RESULT: 176 to 178 °C

QUERY: Indicate its recorded melting point; the compound in question is Nc1sc2c(c1C(=O)c1ccsc1)CCCC2
RESULT: 133 to 135 °C

QUERY: Name the recorded melting point of the compound listed here: CCCCNC(=S)N1CCC(c2nc(-c3ccc(-c4ccccc4)cc3)c[nH]2)CC1
RESULT: 102 to 103 °C

QUERY: Given CCOC(=O)C(NC(=O)OCc1ccccc1)C(=O)OCC , respond with its melting point.
RESULT: 36.5 to 37 °C

QUERY: Using known records, supply melting point for CC(=O)NCC1CC(c2cc(F)c(-n3ccnc3)c(F)c2)=NO1 (single isomer, unassigned; (-))
RESULT: 168 to 169 °C

---

Listed here: items and their measured melting point.

{"compound": "C=C=CC1(OC(C)=O)CCC2C3CCc4cc(OC)ccc4C3CCC21C (stereo not given)", "melting point": "89 to 90 °C"}

QUERY: Please report melting point for the following compound: O=C1NC(=O)C(O)(c2c[nH]c3ccc(Br)cc23)C(=O)N1
RESULT: > 250 °C

QUERY: For the compound CC1=Nc2cc3c(cc2C1(C)C)N=C(C)C3(C)C , report melting point.
RESULT: 190 to 195 °C

QUERY: Check the records and state melting point for Cc1ccc(-c2ccc3c(c2)C=C(C(=O)Nc2ccc(CP4(=O)OCCCO4)cc2)CCO3)cc1
RESULT: 268 to 269 °C

QUERY: Input CCOC(=O)C(Cc1ccc(C(F)(F)F)cc1)C(=O)c1cccc(F)c1 (stereo not given) , output reported melting point.
RESULT: 50 to 51 °C

QUERY: Using the record for CC(=O)c1ccc2c(c1)N(C(=O)OC(C)(C)C)CCC2 , state its measured melting point.
RESULT: 125 to 127 °C

QUERY: Let me know recorded melting point for Cn1cc(S(C)=O)c(=O)c2ccsc21 (stereo not given) , thanks.
RESULT: 150 to 152 °C

QUERY: Consider the compound CSC[C@H](C)NC(=O)c1c(OC(F)(F)F)cccc1C(=O)Nc1ccc(Cn2nc(C(F)(F)F)cc2C(F)(F)F)cc1C and give its recorded melting point.
RESULT: 158 to 160 °C

QUERY: Tell me melting point reported for Oc1ccc(F)c2c1C[C@@H](N(C1CCC1)C1CCC1)CO2
RESULT: 170 to 172 °C

QUERY: Output measured melting point for this item: CC(=O)O[C@H]1CC[C@H](c2ccc(C#N)cc2)CC1
RESULT: 130 to 131 °C
